- Test system: U2OS
- Assay info: Multiplex assay against U2OS
- Type: toxicity, cell-based
- Test context: human, 12 h, 1 µM, compound concentration 1 uM, replicate 2
Would you please tag the item Satisfied when its Population Apoptotic (%) is 40% or above, and Not satisfied when it is below?

A selection of reference data follows.
{"columns": ["Compound", "Target or system", "Class name"],
 "data": [
  ["NC(=O)c1cccc(-c2cc(Nc3ccc(OC(F)(F)F)cc3)ncn2)c1", "U2OS", "Not satisfied"],
  ["COc1cc2ncnc(Nc3ccc(F)c(Cl)c3)c2cc1NC(=O)/C=C/CN1CCCCC1 [DACOMITINIB ANHYDROUS]", "U2OS", "Satisfied"],
  ["O=C1N/C(=N/c2ccccc2F)S/C1=C\\c1ccc(C(=O)O)cc1", "U2OS", "Not satisfied"],
  ["CN1C2CCC1CC(OC(c1ccc(F)cc1)c1ccc(F)cc1)C2.Cl (stereo not given)", "U2OS", "Satisfied"],
  ["CN(C)C(=O)C(CCN1CCC(O)(c2ccc(Cl)cc2)CC1)(c1ccccc1)c1ccccc1.Cl [LOPERAMIDE HYDROCHLORIDE]", "U2OS", "Not satisfied"]
]}

Inquiry: API: above_or_equal(metric=Population Apoptotic (%), cutoff=40%) for item CCCS(=O)(=O)c1nc(NC2CC2)cc(-c2ccc3c(ccn3C3CC(C)(C)NC(C)(C)C3)c2)n1
Reply text: Not satisfied

Inquiry: API: above_or_equal(metric=Population Apoptotic (%), cutoff=40%) for item Cc1ccc(C(=O)Nc2cccc(C(F)(F)F)c2)cc1Nc1nc(-c2cccnc2)nc2c1cnn2C
Reply text: Satisfied

Inquiry: API: above_or_equal(metric=Population Apoptotic (%), cutoff=40%) for item CN1CCC(=C2c3ccccc3CC(=O)c3sccc32)CC1.O=C(O)/C=C/C(=O)O [KETOTIFEN FUMARATE]
Reply text: Satisfied

Inquiry: API: above_or_equal(metric=Population Apoptotic (%), cutoff=40%) for item COC(=N)c1nc2ccc3ncnc(Nc4ccc(OC)cc4F)c3c2s1
Reply text: Not satisfied

Inquiry: API: above_or_equal(metric=Population Apoptotic (%), cutoff=40%) for item Cc1cc(C)c(S(=O)(=O)N(Cc2ccc(-c3cccc(S(C)(=O)=O)c3)cc2)Cc2ccc(C(F)(F)F)o2)c(C)c1
Reply text: Satisfied

Inquiry: API: above_or_equal(metric=Population Apoptotic (%), cutoff=40%) for item CCCn1c(=O)c2[nH]c(-c3cnn(Cc4cccc(C(F)(F)F)c4)c3)nc2n(CC)c1=O [GS 6201]
Reply text: Satisfied

Inquiry: API: above_or_equal(metric=Population Apoptotic (%), cutoff=40%) for item COc1ccc(-c2ccc3c(N4CCOCC4)nc(N4C[C@@H](C)O[C@@H](C)C4)nc3n2)cc1CO [Ku-0063794]
Reply text: Satisfied

Inquiry: API: above_or_equal(metric=Population Apoptotic (%), cutoff=40%) for item Cc1cn(-c2cc(NC(=O)c3ccc(C)c(Nc4nccc(-c5cccnc5)n4)c3)cc(C(F)(F)F)c2)cn1 [NILOTINIB]
Reply text: Not satisfied

* * *

- System: Fibroblast
- Assay info: Multiplex assay against human fibroblast
- Assay type: toxicity, cell-based
- Test context: 12 h, 1 µM, compound concentration 1 uM, replicate 2
Grouping rule (Total Cell Count): bin 0 (below 70), bin 1 (70 to below 100), bin 2 (100 or more)

A selection of reference data follows.
{"columns": ["Molecule", "Class name"],
 "data": [
  ["CN(C)C(=O)C(CCN1CCC(O)(c2ccc(Cl)cc2)CC1)(c1ccccc1)c1ccccc1.Cl [LOPERAMIDE HYDROCHLORIDE]", "bin 0"],
  ["CNC(=O)c1ccc(Nc2nc(OC3CCCC3)c3c(-c4ccc5nc(C)oc5c4)c[nH]c3n2)c(OC)c1", "bin 1"],
  ["CCOc1cc(C(=O)N2CCC(N3CCN(C)CC3)CC2)ccc1Nc1ncc2c(n1)N(C1CCCC1)c1ccccc1C(=O)N2C", "bin 0"],
  ["CCCS(=O)(=O)c1nc(NC2CC2)cc(-c2ccc3c(ccn3C3CC(C)(C)NC(C)(C)C3)c2)n1", "bin 2"],
  ["Cc1cn(-c2cc(NC(=O)c3ccc(C)c(Nc4nccc(-c5cccnc5)n4)c3)cc(C(F)(F)F)c2)cn1", "bin 0"],
  ["O=C(Nc1ccc(-c2ccnc(Nc3ccc(N4CCOCC4)cc3)n2)cc1)[C@@H]1CCCN1", "bin 0"],
  ["S=C(NCCCc1c[nH]cn1)NCCCN(Cc1ccc(Cl)c(Cl)c1)c1ccc(Br)cn1", "bin 1"],
  ["COc1cc(N2CCN(C)CC2)ccc1Nc1ncc2c(n1)N(C)c1ccccc1C(=O)N2C", "bin 2"],
  ["O=C(Nc1ccc(Cl)cc1)Nc1cccc(-c2cccc(N3CCCC3)n2)c1", "bin 1"],
  ["Cl.O=c1c2cccn2c2ccccc2n1CCCN1CCC(c2ccc(Cl)cc2)CC1", "bin 2"]
]}

Next up:
Inquiry: Please let me know in which category the item CCn1cc(-c2ccnc3[nH]c(-c4cccc(CN(C)C)c4)cc23)c(-c2ccc(NC(=O)N(C)C)cc2)n1 belongs.
Reply text: bin 1
